methodSummary: Oral bioavailability in rat
Assay type: ADME, organism-based
assayContext: in vivo
measurementName: bioavailability (%)

P = Cc1cc(C[C@@H](OC(=O)N2CCC(N3CCc4ccccc4NC3=O)CC2)C(=O)N2CCC(N3CCOCC3)CC2)cc(C)c1O
Q = Cc1cc(C[C@@H](NC(=O)N2CCC3(CC2)OC(=O)Nc2ncccc23)C(=O)N[C@@H](CC2CCNCC2)C(=O)N2CCN(c3ccncc3)CC2)cc2cn[nH]c12
R = CN1CCN(C2CCN(C(=O)[C@H](CC(=O)N3CCC(N4CCc5ccccc5NC4=O)CC3)Cc3cc(Cl)c(N)c(C(F)(F)F)c3)CC2)CC1
Incoming: Order the entries by their reported bioavailability, beginning at the minimum. Answer format: the labels, in the requested order.
Outgoing: P, R, Q
(P: 13%, R: 43%, Q: 100%)
